# measurement-target: TcPINK1 121-570 (TcPINK1-4arom) (Tribolium castaneum, UniProt D6WMX4, F401A/W131A/W142A/Y225A)
# Construct: GST (N, cleaved yes)
# Sequence (D6WMX4 121-570 W131A/W142A/Y225A/F401A): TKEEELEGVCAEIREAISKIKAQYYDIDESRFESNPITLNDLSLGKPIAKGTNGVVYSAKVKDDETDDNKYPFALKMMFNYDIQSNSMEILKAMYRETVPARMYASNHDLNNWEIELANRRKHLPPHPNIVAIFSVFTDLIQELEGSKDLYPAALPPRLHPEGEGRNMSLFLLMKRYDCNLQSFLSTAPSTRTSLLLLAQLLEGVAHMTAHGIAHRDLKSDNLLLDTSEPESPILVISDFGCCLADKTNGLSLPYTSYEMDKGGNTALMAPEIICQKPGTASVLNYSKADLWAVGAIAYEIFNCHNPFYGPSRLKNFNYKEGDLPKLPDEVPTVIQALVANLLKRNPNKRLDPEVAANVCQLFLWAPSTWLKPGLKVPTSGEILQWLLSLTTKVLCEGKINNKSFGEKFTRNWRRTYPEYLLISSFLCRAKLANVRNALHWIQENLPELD
# test-description: Isothermal titration calorimetry
# assay-setup: AMP-PNP (syringe) into TcPINK1 (cell), 20 °C, one-site model
pKd: −log10 of the molar value.
endpoint-name: pKd

| smiles-entry | endpoint-name | recorded-result |
| --- | --- | --- |
| Nc1ncnc2c1ncn2[C@@H]1O[C@H](COP(=O)(O)OP(=O)(O)NP(=O)(O)O)[C@@H](O)[C@H]1O | pKd | 4.02 |
